test system: primary human hepatic stellate cells (donor 1); experiment: scaled lipid accumulation score (0 = DMSO-like, 1 = nortriptyline-like); higher = stronger HSC inactivation (lipid re-accumulation), active = hit call of the paper; conditions: library stock concentration: 10 mM; 48 h
Where a name gives a salt, the structure may show the parent alone. Hit rate of the full screen: of about 5,800 compounds, about 620 (11%) showed activity.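 How the source made its calls: active = score above a cut-off or among the top three wells of a plate; in these data no inactive exceeds 0.85.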 The sample as a whole holds a higher share of actives than the screen did.
Possible outcomes: Yes for active, No for inactive

{"compound": "Cc1ccc(C(=O)NCCCCCC(=O)Nc2ccccc2N)cc1", "tgt": "primary human hepatic stellate cells (donor 1)", "qualitative label": "No"}
{"compound": "CN(C)c1nc(N)c(C(=O)Nc2cccnc2)nc1Cl [ACDPP hydrochloride]", "tgt": "primary human hepatic stellate cells (donor 1)", "qualitative label": "No"}
{"compound": "CC(C)[C@H]1c2ccc(F)cc2CC[C@@]1(CCN(C)CCCc1nc2ccccc2[nH]1)OC(=O)C1CC1 [NNC 55-0396 dihydrochloride]", "tgt": "primary human hepatic stellate cells (donor 1)", "qualitative label": "No"}
{"compound": "NC(C(=O)O)c1ccc(C(=O)O)c(C(=O)O)c1 (centres undefined)", "tgt": "primary human hepatic stellate cells (donor 1)", "qualitative label": "No"}
{"compound": "CC(C=CC(=O)NO)=CC(C)C(=O)c1ccc(N(C)C)cc1 (centres undefined)", "tgt": "primary human hepatic stellate cells (donor 1)", "qualitative label": "No"}
{"compound": "CC(C)[C@H]1c2ccc(F)cc2CC[C@@]1(CCN(C)CCCc1nc2ccccc2[nH]1)OC(=O)C1CC1", "tgt": "primary human hepatic stellate cells (donor 1)", "qualitative label": "No"}
{"compound": "CCC(C)(Oc1ccc(C2(c3ccc(OC(C)(CC)C(=O)O)cc3)CCCCC2)cc1)C(=O)O (centres undefined) [Clinofibrate]", "tgt": "primary human hepatic stellate cells (donor 1)", "qualitative label": "No"}
{"compound": "O=C1NC(=O)/C(=C\\c2cccc(C(F)(F)F)c2)S1", "tgt": "primary human hepatic stellate cells (donor 1)", "qualitative label": "No"}
{"compound": "N[C@@H](Cn1ccc(=O)c(O)c1)C(=O)O", "tgt": "primary human hepatic stellate cells (donor 1)", "qualitative label": "No"}
{"compound": "CNCc1ccc(C)c(NC(=O)c2ccc(Nc3nc(-c4ccccc4)c4ccccc4n3)cc2)c1", "tgt": "primary human hepatic stellate cells (donor 1)", "qualitative label": "No"}
{"compound": "CCOC(=O)c1ncc2[nH]c3cccc(OC(C)C)c3c2c1C", "tgt": "primary human hepatic stellate cells (donor 1)", "qualitative label": "No"}
{"compound": "Cc1cc(Nc2ccc(NC(=O)c3ccc(Nc4ccnc5ccccc45)cc3)cc2)nc(N)n1", "tgt": "primary human hepatic stellate cells (donor 1)", "qualitative label": "No"}
{"compound": "OCCN1CCN(CCCN2c3ccccc3Sc3ccc(C(F)(F)F)cc32)CC1 [Fluphenazine dihydrochloride]", "tgt": "primary human hepatic stellate cells (donor 1)", "qualitative label": "No"}
{"compound": "Fc1cc(-c2ccnc(Nc3ccc(-n4cnc(N5CCOCC5)n4)cc3)n2)cc(N2CCOCC2)c1", "tgt": "primary human hepatic stellate cells (donor 1)", "qualitative label": "No"}
{"compound": "CC1c2ccccc2CN1CC1=NCCN1 (centres undefined)", "tgt": "primary human hepatic stellate cells (donor 1)", "qualitative label": "No"}
